- System under test: PPARγ-RXRα heterodimer (Homo sapiens)
- Sequence (P37231 1-505): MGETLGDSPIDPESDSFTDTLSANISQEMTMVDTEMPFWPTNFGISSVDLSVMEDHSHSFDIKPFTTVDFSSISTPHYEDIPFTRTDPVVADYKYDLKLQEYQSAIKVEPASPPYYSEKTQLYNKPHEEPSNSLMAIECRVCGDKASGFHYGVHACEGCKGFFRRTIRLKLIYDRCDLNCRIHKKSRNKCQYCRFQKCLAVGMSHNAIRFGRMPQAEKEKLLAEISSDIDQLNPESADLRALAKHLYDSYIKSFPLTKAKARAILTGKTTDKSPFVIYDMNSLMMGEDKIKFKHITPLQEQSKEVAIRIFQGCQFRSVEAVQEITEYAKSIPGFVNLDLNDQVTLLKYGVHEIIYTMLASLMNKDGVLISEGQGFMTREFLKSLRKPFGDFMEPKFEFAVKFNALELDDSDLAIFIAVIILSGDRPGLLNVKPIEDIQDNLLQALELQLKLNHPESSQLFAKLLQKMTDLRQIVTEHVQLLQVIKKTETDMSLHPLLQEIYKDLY
- Sequence (P19793 1-462 partner): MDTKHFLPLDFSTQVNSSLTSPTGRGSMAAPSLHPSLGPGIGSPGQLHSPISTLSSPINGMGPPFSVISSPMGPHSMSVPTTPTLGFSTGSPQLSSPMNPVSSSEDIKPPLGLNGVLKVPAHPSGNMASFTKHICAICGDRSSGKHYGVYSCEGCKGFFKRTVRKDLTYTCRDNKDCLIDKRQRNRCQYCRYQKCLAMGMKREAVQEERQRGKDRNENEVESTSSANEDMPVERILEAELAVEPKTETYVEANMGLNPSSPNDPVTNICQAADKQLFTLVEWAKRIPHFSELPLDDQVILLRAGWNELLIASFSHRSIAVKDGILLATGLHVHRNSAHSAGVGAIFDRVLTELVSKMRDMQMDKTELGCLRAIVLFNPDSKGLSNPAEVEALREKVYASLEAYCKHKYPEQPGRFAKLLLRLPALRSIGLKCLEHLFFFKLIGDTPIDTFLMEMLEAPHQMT
- Procedure details: PPARγ-RXRα heterodimer ligand activity (luciferase reporter)
- Condition: PPARγ:RXRα:4ERPP/CHO-K1 cells, 18-24 hr, concentration showing 50% of the maximum induction rate
pEC50: −log10 of the molar value.
Readout type: pEC50

{"columns": ["Molecule", "pEC50"],
 "data": [
  ["COc1cccc(CC(=O)O)c1OCCCc1cc(OC(C)C)nn1C(C)c1ccc(Cl)cc1Cl (stereo not shown)", 8.21]
]}

[A] COCOc1cc(CCCOc2nn(Cc3ccccc3)cc2CC(=O)O)n(Cc2ccc(Cl)cc2Cl)n1
[B] CC(C)Oc1ccc(CCCOc2cc(CCC(=O)O)n(-c3ccccc3)n2)c(OCc2ccc(Cl)cc2Cl)c1
[C] CC(C)Cn1nc(OCCCc2ccc(OC(C)C)cc2Oc2ncc(C(F)(F)F)cc2Cl)cc1CCC(=O)O
# rank by pEC50, ascending (min first) Returns: the labels arranged in the requested order.
B, A, C
